Target chain: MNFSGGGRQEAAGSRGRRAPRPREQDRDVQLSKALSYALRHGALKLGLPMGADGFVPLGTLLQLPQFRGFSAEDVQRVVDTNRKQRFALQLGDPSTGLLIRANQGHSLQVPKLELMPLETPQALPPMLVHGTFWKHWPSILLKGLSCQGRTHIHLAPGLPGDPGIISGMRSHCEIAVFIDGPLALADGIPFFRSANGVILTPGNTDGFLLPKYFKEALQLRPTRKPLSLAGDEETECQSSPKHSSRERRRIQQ
Reported Endpoint: pKd
To interpret pKd, take it as minus log10 of a concentration measured in moles per litre.

Q: Give recorded pKd. NC(=O)c1ccc[n+]([C@@H]2O[C@H](COP(=O)([O-])OP(=O)(O)OC[C@H]3O[C@@H](n4cnc5c(N)ncnc54)[C@H](O)[C@@H]3O)[C@@H](O)[C@H]2O)c1 [NAD^+]
Ans: 4.93

* * *

target: ScTRPT1 (TPT1, tRNA 2′-phosphotransferase) (Saccharomyces cerevisiae, UniProt Q12272)
Sequence (Q12272 whole entry): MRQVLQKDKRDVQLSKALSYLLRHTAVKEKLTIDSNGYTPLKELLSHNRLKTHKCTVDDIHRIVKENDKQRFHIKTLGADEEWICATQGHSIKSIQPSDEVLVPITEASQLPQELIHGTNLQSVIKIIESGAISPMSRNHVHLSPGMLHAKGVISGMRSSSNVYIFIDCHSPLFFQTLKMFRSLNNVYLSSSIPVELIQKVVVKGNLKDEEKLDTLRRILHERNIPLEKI
Reported Endpoint: Kd (µM)
Answer with a number only, understood to be in µM.

Q: Give recorded Kd. NC(=O)c1ccc[n+]([C@@H]2O[C@H](COP(=O)([O-])OP(=O)(O)OC[C@H]3O[C@@H](n4cnc5c(N)ncnc54)[C@H](O)[C@@H]3O)[C@@H](O)[C@H]2O)c1 [NAD^+]
Ans: 23.8
